System: morningglory
Test: Test B pre/postemergence morningglory
Type: in vivo, Ipomoea hederacea
Details: Postemergence, Rate 125 g/ha; scale 0 to 10, 0 is no effect, 10 is complete control
Decide using Plant response rating, Morningglory alone. Strictly below 5: class 1. Equal to or above 5: class 0.

{"columns": ["compound", "assigned-class"],
 "data": [
  ["CC(C)N(C(=O)n1oc(=O)n(N2C(C)CCCC2C)c1=O)c1ccc(F)cc1F (stereo not drawn) [Compound 383]", "class 1"],
  ["CC(C)N(C(=O)n1oc(=O)n(C2CCC2)c1=O)c1ccc(F)cc1F [Compound 351]", "class 1"],
  ["CCOC(=O)C(C)N(C(=O)n1oc(=O)n(C)c1=O)c1ccc(F)cc1 (stereo not drawn) [Compound 365]", "class 1"],
  ["CC(C)N(C(=O)n1oc(=O)n(C2(C)CC2)c1=O)c1ccc(F)cc1F [Compound 363]", "class 1"],
  ["CC1CC1n1c(=O)on(C(=O)N(c2ccccc2)C(C)C)c1=O (stereo not drawn) [Compound 370]", "class 0"]
]}

Value source: patent US6737383B1
